- Procedure Text: Tested for the ratio of uterotonic potency to pressor potency(O/P)
- Assay type: functional
Listing of recorded Ratio by entry.
Field format: numeric only.

Some compounds with known Ratio results, for comparison:
Structure String	Ratio
CC[C@H](C)[C@@H]1NC(=O)[C@@H](Cc2ccc(O)cc2)NC(=O)[C@H](N)CSSC[C@@H](C(=O)N[C@@H](C)C(=O)N[C@@H](CC(C)C)C(=O)NCC(N)=O)NC(=O)[C@H](CC(N)=O)NC(=O)[C@@H](CCC(N)=O)NC1=O	55
CC[C@H](C)[C@@H]1NC(=O)[C@@H](Cc2ccc(O)cc2)NC(=O)[C@H](N)CSSC[C@@H](C(=O)NCC(=O)N[C@@H](CC(C)C)C(=O)NCC(N)=O)NC(=O)[C@H](CC(N)=O)NC(=O)[C@@H](CCC(N)=O)NC1=O	9300
CC[C@H](C)[C@@H]1NC(=O)[C@H](Cc2ccc(O)cc2)NC(=O)[C@@H](N)CSSC[C@@H](C(=O)N2CCC[C@H]2C(=O)N[C@@H](CC(C)C)C(=O)NCC(N)=O)NC(=O)[C@H](CC(N)=O)NC(=O)[C@H](CCC(N)=O)NC1=O	120

Then there is this compound:
Enquiry: Supply recorded Ratio for `CC[C@H](C)[C@@H]1NC(=O)[C@H](Cc2ccc(O)cc2)NC(=O)CCSSC[C@H](C(=O)N2CCC[C@H]2C(=O)N[C@@H](CC(C)C)C(=O)NCC(N)=O)NC(=O)[C@H](CC(N)=O)NC(=O)[C@H](CCC(N)=O)NC1=O` here.
Return: 120

---

- Species on record: Rattus norvegicus
- Procedure Text: Tested for antidiuretic activity in rat
- Assay type: functional, Urine
- Parameters: unit not given here
Positions of bridges follow the written chain, without caps; N, C: chain ends. Non-standard residues stand in square brackets, D forms with d. Residues, ends and D or L forms follow the SMILES beside them. Sar = CNCC(=O)O
Activity strictly under 0.2 means 1; at 0.2 or over means 0.

Enquiry: # TODO verify Activity < 0.2 strictly for this compound: CC[C@H](C)[C@@H]1NC(=O)[C@H](Cc2ccc(O)cc2)NC(=O)[C@@H](N)CSSC[C@@H](C(=O)N(C)CC(=O)N[C@@H](CC(C)C)C(=O)NCC(N)=O)NC(=O)[C@H](CC(N)=O)NC(=O)[C@H](CCC(N)=O)NC1=O (H-CYIQNC[Sar]LG-NH2; disulfide 1-6)
Return: 1

---

Listing of recorded Activity by entry.
- Species: Rattus norvegicus
- Procedure Text: Tested for vasopressor activity in rat
- Assay type: functional
- Design: unit not given here
Positions of bridges follow the written chain, without caps; N, C: chain ends. Non-standard residues stand in square brackets, D forms with d. Residues, ends and D or L forms follow the SMILES beside them. NMeA = CN[C@@H](C)C(=O)O; Sar = CNCC(=O)O
Field format: numeric only.

Enquiry: Supply recorded Activity for CN(CC(=O)N[C@@H](CCCN=C(N)N)C(=O)NCC(N)=O)C(=O)[C@@H]1CSSC[C@H](N)C(=O)N[C@@H](Cc2ccc(O)cc2)C(=O)N[C@@H](Cc2ccccc2)C(=O)N[C@@H](CCC(N)=O)C(=O)N[C@@H](CC(N)=O)C(=O)N1 (H-CYFQNC[Sar]RG-NH2; disulfide 1-6) here.
Return: 36

Enquiry: Supply recorded Activity for C[C@@H](C(=O)N[C@@H](CCCN=C(N)N)C(=O)NCC(N)=O)N(C)C(=O)[C@@H]1CSSC[C@H](N)C(=O)N[C@@H](Cc2ccc(O)cc2)C(=O)N[C@@H](Cc2ccccc2)C(=O)N[C@@H](CCC(N)=O)C(=O)N[C@@H](CC(N)=O)C(=O)N1 (H-CYFQNC[NMeA]RG-NH2; disulfide 1-6) here.
Return: 4.1
